system: BT-549 breast; assay: NCI-60 one-dose screen, 48 h (100 = growth as untreated, 0 = no growth, -100 = all killed); details: 10 µM unless noted
Compounds without any hit were thinned out: in the full panel of roughly 83,000, 20% have a hit.
# if value of growth reaches 70%, tag y; if it stays below, tag n

Sample answers from the record:
[
  {
    "MOLECULE": "C=C1C(=O)O[C@H]2[C@H]1CC/C(COC(=O)NCc1ccc(Cn3c(=O)sn(-c4ccc(OC)cc4)c3=O)cc1)=C\\CC[C@@]1(C)O[C@@H]21",
    "TARGET OR TEST SYSTEM": "BT-549 breast",
    "GROUP": "y"
  },
  {
    "MOLECULE": "Nc1c(C(=O)Nc2ccccn2)sc2nc3c(cc12)C(O)CCC3 (stereo not given)",
    "TARGET OR TEST SYSTEM": "BT-549 breast",
    "GROUP": "n"
  },
  {
    "MOLECULE": "O=C1/C(=C/c2ccc(C(F)(F)F)cc2)COc2ccc(O)cc21",
    "TARGET OR TEST SYSTEM": "BT-549 breast",
    "GROUP": "y"
  }
]

stdin: Say whether CCOC(=O)c1c(C)nc2ccccc2c1/C=C/c1ccc(OC)cc1 shows growth of 70% or more.
stdout: n

stdin: Say whether Cc1cc(N2CCCCC2)nc(N2CCN(CC(=O)Nc3ccc4c(ccn4Cc4ccccc4)c3)CC2)n1 shows growth of 70% or more.
stdout: y

stdin: Say whether Cn1cc(/C=C2/C(=O)Nc3ccccc32)c2ccccc21 shows growth of 70% or more.
stdout: y

stdin: Say whether C=C1C(=O)O[C@H]2[C@H]1CC/C(COC(=O)/C=C\C(=O)NCc1ccc(Cn3c(=O)sn(-c4ccccc4)c3=O)cc1)=C\CC[C@@]1(C)O[C@@H]21 shows growth of 70% or more.
stdout: y

stdin: Say whether CCCCCCCCCCCCCCCCCCOc1ccccc1CC(=O)NCC[N+]1(C)CCOCC1 shows growth of 70% or more.
stdout: n

stdin: Say whether COc1ccc(C2=NN(C(C)=O)C(c3ccc(Oc4ccnc5cc(Cl)ccc45)c(OC)c3)C2)cc1 (stereo not given) shows growth of 70% or more.
stdout: y
